Data provenance: the supplement of paper PMC6555819

Tested on: PPARg:RXRa 90nM:30nM, anti-RXR (NR concentration 90 nM, RXRa partner concentration 30 nM)
Experiment: PBM binding z-score (relative to random genomic background probes); higher = stronger binding; sequences stand for … in GC…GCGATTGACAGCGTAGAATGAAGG
Entry class follows PBM binding z-score: group A = under 0.5, group B = from 0.5 up to 3, group C = 3 and over

-- ask Textbook exercise: identify the category of the sequence given here, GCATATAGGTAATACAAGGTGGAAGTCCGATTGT , according to its measured value.
-- reply group B

-- ask Class (by measured PBM binding z-score) for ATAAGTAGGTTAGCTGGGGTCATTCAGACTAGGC
-- reply group C

-- ask State the band of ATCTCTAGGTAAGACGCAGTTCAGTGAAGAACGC
-- reply group A

-- ask Determine which band this sequence sits in: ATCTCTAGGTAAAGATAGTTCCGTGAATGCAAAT
-- reply group A

-- ask The entry to classify is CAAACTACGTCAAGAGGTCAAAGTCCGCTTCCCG ; which class holds it?
-- reply group C

-- ask In plain terms, what class is GCTATTAGTTGAAAGGGCAACCTAATGATTCTCG ?
-- reply group C

-- ask Textbook exercise: identify the category of the sequence given here, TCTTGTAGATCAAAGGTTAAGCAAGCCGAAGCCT , according to its measured value.
-- reply group C

-- ask Please report the category associated with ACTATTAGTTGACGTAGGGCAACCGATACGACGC , nothing else.
-- reply group A

-- ask Please let me know in which category the item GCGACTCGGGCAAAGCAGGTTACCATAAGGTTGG belongs.
-- reply group A

-- ask For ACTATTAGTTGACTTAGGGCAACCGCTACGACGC , which PBM binding z-score bin applies?
-- reply group A

-- ask Record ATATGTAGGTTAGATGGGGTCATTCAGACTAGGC — which class?
-- reply group C

-- ask # classify by PBM binding z-score band: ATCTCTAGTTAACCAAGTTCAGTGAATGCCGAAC
-- reply group A

-- ask GET /class?item= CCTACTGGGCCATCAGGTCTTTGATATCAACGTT
-- reply group B

-- ask Hi there! Could you help me figure out the category for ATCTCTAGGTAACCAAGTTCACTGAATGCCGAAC please?
-- reply group B

-- ask Hi there! Could you help me figure out the category for CGAACGAGCGCATGAGTTGATAGCAAATGCCGAT please?
-- reply group A

-- ask Which class holds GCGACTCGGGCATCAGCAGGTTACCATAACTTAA ?
-- reply group A

-- ask Kindly identify the class of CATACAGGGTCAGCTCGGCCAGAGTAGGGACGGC .
-- reply group B

-- ask Kindly identify the class of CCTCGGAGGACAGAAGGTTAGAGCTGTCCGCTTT .
-- reply group A

-- ask Consider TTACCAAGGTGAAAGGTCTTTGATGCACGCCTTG . To which PBM binding z-score class does it belong?
-- reply group C

-- ask Class for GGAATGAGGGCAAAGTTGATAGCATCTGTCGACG ?
-- reply group C

-- ask Given CGAACGAAGGCATGAGTTGATAGCAAATGCCGAT , name the class its PBM binding z-score places it in.
-- reply group A

-- ask Entry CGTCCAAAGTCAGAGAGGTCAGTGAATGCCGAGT belongs to which category?
-- reply group A

-- ask Into which category would you place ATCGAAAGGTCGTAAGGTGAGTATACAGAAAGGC ?
-- reply group B

-- ask Just checking, what class would you give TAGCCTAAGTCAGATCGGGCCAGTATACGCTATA here?
-- reply group A

-- ask Kindly identify the class of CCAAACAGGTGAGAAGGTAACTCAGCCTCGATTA .
-- reply group B

-- ask Please report the category associated with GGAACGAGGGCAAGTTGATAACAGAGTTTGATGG , nothing else.
-- reply group B

-- ask GET /class?item= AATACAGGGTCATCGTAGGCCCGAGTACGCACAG
-- reply group C

-- ask Category of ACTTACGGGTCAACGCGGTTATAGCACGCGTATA :
-- reply group C

-- ask Field: class (PBM binding z-score) — entry: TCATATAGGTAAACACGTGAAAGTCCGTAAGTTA
-- reply group B

-- ask Into which category would you place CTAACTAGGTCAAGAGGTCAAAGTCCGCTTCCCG ?
-- reply group C

-- ask Exercise: read the entry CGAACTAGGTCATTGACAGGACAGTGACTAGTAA and state which class it falls under.
-- reply group C

-- ask Sort into band: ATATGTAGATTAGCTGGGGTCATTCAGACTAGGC
-- reply group B

-- ask Where would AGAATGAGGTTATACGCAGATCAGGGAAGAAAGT land among the classes by reported PBM binding z-score?
-- reply group B

-- ask Dear colleague, I would appreciate it if you could identify the bin for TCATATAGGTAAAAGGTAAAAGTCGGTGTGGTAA and reply at your convenience.
-- reply group C

-- ask Form: Item = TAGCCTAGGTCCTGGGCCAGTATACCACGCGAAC ; Class = ?
-- reply group A

-- ask Record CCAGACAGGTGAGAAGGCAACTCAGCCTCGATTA — which class?
-- reply group A

-- ask Quick check: band for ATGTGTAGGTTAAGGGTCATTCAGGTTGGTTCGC
-- reply group C

-- ask Form: Item = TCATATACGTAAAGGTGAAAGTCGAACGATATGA ; Class = ?
-- reply group C
